target: IKKε (Homo sapiens (Human))
Sequence (Q14164 whole entry): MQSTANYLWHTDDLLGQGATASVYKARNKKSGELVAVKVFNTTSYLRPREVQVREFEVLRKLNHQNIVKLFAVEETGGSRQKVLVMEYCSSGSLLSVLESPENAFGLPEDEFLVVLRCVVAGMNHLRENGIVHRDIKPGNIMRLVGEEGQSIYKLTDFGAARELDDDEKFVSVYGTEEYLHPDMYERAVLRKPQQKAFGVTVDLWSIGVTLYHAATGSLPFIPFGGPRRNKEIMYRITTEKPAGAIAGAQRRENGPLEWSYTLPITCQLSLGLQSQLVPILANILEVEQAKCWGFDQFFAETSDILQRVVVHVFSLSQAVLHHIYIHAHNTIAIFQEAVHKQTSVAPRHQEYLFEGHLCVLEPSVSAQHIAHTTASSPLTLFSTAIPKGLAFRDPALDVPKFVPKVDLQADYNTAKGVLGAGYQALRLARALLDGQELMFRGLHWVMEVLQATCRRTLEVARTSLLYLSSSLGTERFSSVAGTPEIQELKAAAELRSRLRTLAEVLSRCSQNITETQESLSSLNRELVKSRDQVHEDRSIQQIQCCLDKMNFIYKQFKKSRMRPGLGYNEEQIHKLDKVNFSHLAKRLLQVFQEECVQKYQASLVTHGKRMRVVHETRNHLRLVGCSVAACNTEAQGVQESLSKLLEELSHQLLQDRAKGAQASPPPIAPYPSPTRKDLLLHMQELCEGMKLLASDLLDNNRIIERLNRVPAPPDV
Property Label: IC50 (µM)

Study these solved cases before continuing.
[[record]]
compound = "Cc1cc(-c2nc(C(N)=O)c(NC(=O)c3ccc(CN4CCN(C)CC4)cc3)s2)cc(C)n1 [Compound A16]"
property_label = "IC50"
value_reported = 3.8

[[record]]
compound = "Cc1cnccc1-c1nc(C(N)=O)c(NC(=O)c2ccc(CN3CCN(C)CC3)cc2)s1 [Compound A22]"
property_label = "IC50"
value_reported = 0.3


P = Cc1ccc(C(=O)Nc2sc(-c3ccncc3)nc2C(N)=O)cc1 [Compound A55]
Q = NC(=O)c1nc(-c2ccncc2)sc1NC(=O)c1ccc(CN2CCNCC2)cc1 [Compound A24]
Parameter metric = IC50. Return the lower-valued option from P and Q . Label of pick, please.
Q

---

Let's go through some recorded IC50 values for UniProt:Q9UHD2 together.
Property Label: IC50 (µM)

[[record]]
query_smiles = "CN1CCN(C(=O)c2ccc(C(=O)Nc3sc(-c4ccncc4)nc3C(N)=O)cc2)CC1"
property_label = "IC50"
value_reported = 0.31

[[record]]
query_smiles = "CN1CCC(Cc2ccc(C(=O)Nc3sc(-c4ccncc4)nc3C(N)=O)cc2)CC1"
property_label = "IC50"
value_reported = 0.1

[[record]]
query_smiles = "NC(=O)c1nc(-c2ccncc2)sc1NC(=O)c1cc[nH]n1"
property_label = "IC50"
value_reported = 2.7

[[record]]
query_smiles = "NC(=O)c1nc(-c2ccncc2)sc1NC(=O)c1ccccc1"
property_label = "IC50"
value_reported = 3.6


I = CN1CCN(Cc2ccc(C(=O)Nc3sc(-c4ccnc(C(F)(F)F)c4)nc3C(N)=O)cc2)CC1
II = NC(=O)c1nc(-c2ccncc2)sc1NC(=O)c1ccc(CN2CCCC2)cc1
III = CN1CCN(Cc2ccc(C(=O)Nc3sc(-c4ccnc(C#N)c4)nc3C(N)=O)cc2)CC1
IV = NC(=O)c1nc(-c2ccncc2)sc1NC(=O)c1ccc[nH]1
Sort entries by IC50 from minimum to maximum value. Order the labels as requested and give them as your answer.
IV, II, III, I
(IV: 0.12 µM, II: 1.16 µM, III: 2 µM, I: 6.3 µM)

---

target: TANK binding kinase (TBK1) (Homo sapiens (Human)); test: TBK1 enzyme assay (384-well Flashplate kinase assay); assay type: biochemical; conditions: 10 μM ATP, 120 Min at 30° C.
Sequence (Q9UHD2 whole entry): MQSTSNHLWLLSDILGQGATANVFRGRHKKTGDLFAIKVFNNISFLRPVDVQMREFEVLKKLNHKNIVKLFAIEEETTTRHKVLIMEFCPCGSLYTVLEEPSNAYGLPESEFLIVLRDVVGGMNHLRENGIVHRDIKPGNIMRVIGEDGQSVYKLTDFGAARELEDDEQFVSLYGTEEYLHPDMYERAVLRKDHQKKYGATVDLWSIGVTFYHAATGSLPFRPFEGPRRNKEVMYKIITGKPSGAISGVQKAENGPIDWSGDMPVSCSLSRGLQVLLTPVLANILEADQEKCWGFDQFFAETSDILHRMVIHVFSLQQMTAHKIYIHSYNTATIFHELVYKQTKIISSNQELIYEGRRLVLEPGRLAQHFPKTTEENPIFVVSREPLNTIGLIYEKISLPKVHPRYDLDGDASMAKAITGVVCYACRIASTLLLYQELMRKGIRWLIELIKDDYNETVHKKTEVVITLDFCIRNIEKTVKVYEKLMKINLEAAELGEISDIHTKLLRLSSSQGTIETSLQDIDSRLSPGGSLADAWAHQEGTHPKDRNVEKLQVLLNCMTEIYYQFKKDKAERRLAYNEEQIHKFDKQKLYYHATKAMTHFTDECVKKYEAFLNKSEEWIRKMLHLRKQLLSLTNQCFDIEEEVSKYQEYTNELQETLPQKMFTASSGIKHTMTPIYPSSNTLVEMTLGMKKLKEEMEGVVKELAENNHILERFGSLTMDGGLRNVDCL
Property Label: IC50 (nM)

[[record]]
molecule = "CN(C)Cc1ccc(C(=O)Nc2sc(-c3ccncc3)nc2C(N)=O)cc1"
property_label = "IC50"
readout_unit = "nM"
value_reported = 1250

[[record]]
molecule = "CC(=O)N1CCC(Cc2ccc(C(=O)Nc3sc(-c4ccncc4)nc3C(N)=O)cc2)CC1"
property_label = "IC50"
readout_unit = "nM"
value_reported = 200

[[record]]
molecule = "CN1CCN(Cc2ccc(C(=O)Nc3sc(-c4ccncc4)nc3C(N)=O)cc2)CC1 [Compound A37]"
property_label = "IC50"
readout_unit = "nM"
value_reported = 710

[[record]]
molecule = "Cc1cnccc1-c1nc(C(N)=O)c(NC(=O)c2ccc(CN3CCN(C)CC3)cc2)s1"
property_label = "IC50"
readout_unit = "nM"
value_reported = 350

[[record]]
molecule = "NC(=O)c1nc(-c2ccncc2)sc1NC(=O)c1ccc(CC2CCNCC2)cc1"
property_label = "IC50"
readout_unit = "nM"
value_reported = 190


P = CN1CCN(Cc2ccc(C(=O)Nc3sc(-c4ccncc4Cl)nc3C(N)=O)cc2)CC1
Q = COc1ccc(C(=O)Nc2sc(-c3ccncc3)nc2C(N)=O)cc1OC
R = COc1cnccc1-c1nc(C(N)=O)c(NC(=O)c2ccc(CN3CCN(C)CC3)cc2)s1
S = NC(=O)c1nc(-c2ccncc2)sc1NC(=O)c1ccc(CC2CCN(C(N)=O)CC2)cc1
T = Cn1cccc1C(=O)Nc1sc(-c2ccncc2)nc1C(N)=O
Arrange items by their IC50 values in increasing order. A ranking is expressed here by listing the labels in the requested order.
R, S, T, P, Q
(R: 46 nM, S: 94 nM, T: 400 nM, P: 640 nM, Q: 1500 nM)

a = CN1CCN(Cc2ccc(C(=O)Nc3sc(-c4ccncc4C(F)(F)F)nc3C(N)=O)cc2)CC1
b = CN1CCN(Cc2ccc(C(=O)Nc3sc(-c4ccnc(F)c4)nc3C(N)=O)cc2)CC1
Field: lower IC50 | Options: a / b Kindly give the label for the entry you pick.
b
(b: 630 nM, a: 1400 nM)

P = CN(C)C(=O)CCCCCc1ccc(C(=O)Nc2sc(-c3ccncc3)nc2C(N)=O)cc1
Q = CN1CCN(Cc2ccc(C(=O)Nc3sc(-c4ccncc4)nc3C(N)=O)cc2)CC1 [Compound A4]
R = CN1CCN(Cc2ccc(Nc3sc(-c4ccncc4)nc3C(N)=O)cc2)CC1
S = NC(=O)c1nc(-c2ccncc2)sc1NC(=O)c1ccoc1
Arrange the 4 molecules from largest to smallest IC50. Provide your answer as the labels ordered per the instruction.
S, R, P, Q

A = NC(=O)c1nc(-c2ccncc2)sc1NC(=O)c1cccs1
B = CN1CCN(Cc2ccc(C(=O)Nc3sc(-c4ccnc(Cl)c4)nc3C(N)=O)cc2)CC1
Between the entries labelled A and B , which has a larger IC50 value on record? Pick one and reply with its label.
A
(A: 2000 nM, B: 1400 nM)

Values from patent US9249114B2
